Target or test system: WT (MipZ) (Caulobacter vibrioides, UniProt Q9A6C9)
Construct: hexahistidine-tagged, full length, overproduced in E. coli Rosetta2(DE3)pLysS
Sequence (Q9A6C9 1-278): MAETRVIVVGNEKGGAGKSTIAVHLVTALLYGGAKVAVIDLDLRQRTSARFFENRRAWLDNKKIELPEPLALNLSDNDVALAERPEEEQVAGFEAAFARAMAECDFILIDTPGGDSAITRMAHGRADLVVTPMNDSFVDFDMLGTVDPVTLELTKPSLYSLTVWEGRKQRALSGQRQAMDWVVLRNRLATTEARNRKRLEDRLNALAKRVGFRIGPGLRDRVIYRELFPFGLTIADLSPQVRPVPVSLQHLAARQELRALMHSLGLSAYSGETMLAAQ
Protocol summary: Stopped-flow FRET transient kinetics of mant-ADP binding to MipZ (excitation 297 nm, 360 nm cut-off) at 30 °C in 50 mM Hepes/NaOH pH 7.2, 50 mM KCl, 10 mM MgCl2, 1 mM β-mercaptoethanol; KD calculated as koff/kon, with koff from displacement by excess unlabeled nucleotide.
Measurement name: Kd (µM)
The figure you give is taken to be in µM; do not add the unit.

Find the recorded Kd belonging to CNc1ccccc1C(=O)O[C@H]1[C@@H](O)[C@H](n2cnc3c(N)ncnc32)O[C@@H]1COP(=O)(O)OP(=O)(O)O [mant-ADP] and report it. 26
